# assay-procedure: Serum stability in mouse serum at 37° C.
# Assay type: in vitro ADME
# measurement-setup: mouse serum, 37° C., mono-exponential fit
Reported Serum τ1/2 (h) mouse values for the following molecules.
result-type: Serum τ1/2 (h) mouse

molecule="C124A/M191L: RLuc mutant C124A/M191L (protein) MASKVYDPEQRKRMITGPQWWARCKQMNVLDSFINYYDSEKHAENAVIFLHGNAASSYLWRHVVPHIEPVARCIIPDLIGMGKSGKSGNGSYRLLDHYKYLTAWFELLNLPKKIIFVGHDWGAALAFHYSYEHQDKIKAIVHAESVVDVIESWDEWPDIEEDIALIKSEEGEKMVLENNFFVETMLPSKILRKLEPEEFAAYLEPFKEKGEVRRPTLSWPREIPLVKGGKPDVVQIVRNYNAYLRASDDLPKMFIESDPGFFSNAIVEGAKKFPNTEFVKVKGLHFSQEDAPDEMGKYIKSFVERVLKNEQ" result_type="Serum τ1/2 (h) mouse" units_of_measure=h value_reported=6.5
molecule="C124A/E195S/P196D: RLuc mutant C124A/E195S/P196D (protein) MASKVYDPEQRKRMITGPQWWARCKQMNVLDSFINYYDSEKHAENAVIFLHGNAASSYLWRHVVPHIEPVARCIIPDLIGMGKSGKSGNGSYRLLDHYKYLTAWFELLNLPKKIIFVGHDWGAALAFHYSYEHQDKIKAIVHAESVVDVIESWDEWPDIEEDIALIKSEEGEKMVLENNFFVETMLPSKIMRKLSDEEFAAYLEPFKEKGEVRRPTLSWPREIPLVKGGKPDVVQIVRNYNAYLRASDDLPKMFIESDPGFFSNAIVEGAKKFPNTEFVKVKGLHFSQEDAPDEMGKYIKSFVERVLKNEQ" result_type="Serum τ1/2 (h) mouse" units_of_measure=h value_reported=1.0
molecule="F33R/I34M/C124A: RLuc mutant F33R/I34M/C124A (protein) MASKVYDPEQRKRMITGPQWWARCKQMNVLDSRMNYYDSEKHAENAVIFLHGNAASSYLWRHVVPHIEPVARCIIPDLIGMGKSGKSGNGSYRLLDHYKYLTAWFELLNLPKKIIFVGHDWGAALAFHYSYEHQDKIKAIVHAESVVDVIESWDEWPDIEEDIALIKSEEGEKMVLENNFFVETMLPSKIMRKLEPEEFAAYLEPFKEKGEVRRPTLSWPREIPLVKGGKPDVVQIVRNYNAYLRASDDLPKMFIESDPGFFSNAIVEGAKKFPNTEFVKVKGLHFSQEDAPDEMGKYIKSFVERVLKNEQ" result_type="Serum τ1/2 (h) mouse" units_of_measure=h value_reported=0.3
molecule="C124A/A143M: RLuc mutant C124A/A143M (protein) MASKVYDPEQRKRMITGPQWWARCKQMNVLDSFINYYDSEKHAENAVIFLHGNAASSYLWRHVVPHIEPVARCIIPDLIGMGKSGKSGNGSYRLLDHYKYLTAWFELLNLPKKIIFVGHDWGAALAFHYSYEHQDKIKAIVHMESVVDVIESWDEWPDIEEDIALIKSEEGEKMVLENNFFVETMLPSKIMRKLEPEEFAAYLEPFKEKGEVRRPTLSWPREIPLVKGGKPDVVQIVRNYNAYLRASDDLPKMFIESDPGFFSNAIVEGAKKFPNTEFVKVKGLHFSQEDAPDEMGKYIKSFVERVLKNEQ" result_type="Serum τ1/2 (h) mouse" units_of_measure=h value_reported=30
